Tested on: K562
experimentNotes: Antiproliferative activity against human K562 cells assessed as reduction in cell growth at 10 uM incubated for 48 hrs by MTT assay
Assay type: functional
Design: scale not given: the % may be the effect or the level left
observationType: Activity (%)
Respond with the bare value in %.

Exam item: For the compound N#C[Se]c1ccc(NC(=O)C2CCCCC2C(=O)O)cc1 (centres undefined) , what Activity is on record?
Marked response: 121.06

Exam item: For the compound O=C(O)CCC(=O)Nc1ccc([Se][Se]c2ccc(NC(=O)CCC(=O)O)cc2)cc1 , what Activity is on record?
Marked response: 105.24

Exam item: For the compound O=C(O)c1ccccc1C(=O)Nc1ccc([Se][Se]c2ccc(NC(=O)c3ccccc3C(=O)O)cc2)cc1 , what Activity is on record?
Marked response: 95.27

Exam item: For the compound O=C1C=CC(=O)N1c1ccc([Se][Se]c2ccc(N3C(=O)C=CC3=O)cc2)cc1 , what Activity is on record?
Marked response: 108.94

Exam item: For the compound O=C1COCC(=O)N1c1ccc([Se][Se]c2ccc(N3C(=O)COCC3=O)cc2)cc1 , what Activity is on record?
Marked response: 104.46

Exam item: For the compound O=C1c2ccccc2C(=O)N1c1ccc([Se][Se]c2ccc(N3C(=O)c4ccccc4C3=O)cc2)cc1 , what Activity is on record?
Marked response: 110.74

Exam item: For the compound N#C[Se]c1ccc(NC(=O)c2ccccc2-c2ccccc2C(=O)O)cc1 , what Activity is on record?
Marked response: 100.79

Exam item: For the compound O=C(O)/C=C\C(=O)Nc1ccc([Se][Se]c2ccc(NC(=O)/C=C\C(=O)O)cc2)cc1 , what Activity is on record?
Marked response: 97.45

Exam item: For the compound N#C[Se]c1ccc(NC(=O)c2ccccc2C(=O)O)cc1 , what Activity is on record?
Marked response: 97.72

Exam item: For the compound N#C[Se]c1ccc(N)cc1 , what Activity is on record?
Marked response: -98.55

Exam item: For the compound N#C[Se]c1ccc(NC(=O)CCC(=O)O)cc1 , what Activity is on record?
Marked response: 94.9

Exam item: For the compound Nc1ccc([Se][Se]c2ccc(N)cc2)cc1 , what Activity is on record?
Marked response: -95.19

Exam item: For the compound O=C(O)COCC(=O)Nc1ccc([Se][Se]c2ccc(NC(=O)COCC(=O)O)cc2)cc1 , what Activity is on record?
Marked response: 120.32

Exam item: For the compound N#C[Se]c1ccc(NC(=O)COCC(=O)O)cc1 , what Activity is on record?
Marked response: 90.71

Exam item: For the compound N#C[Se]c1ccc(NC(=O)c2nccnc2C(=O)O)cc1 , what Activity is on record?
Marked response: 94.04

Exam item: For the compound N#C[Se]c1ccc(NC(=O)C2C3C=CC(O3)C2C(=O)O)cc1 (centres undefined) , what Activity is on record?
Marked response: 102.03

Exam item: For the compound O=C(O)C1C2C=CC(O2)C1C(=O)Nc1ccc([Se][Se]c2ccc(NC(=O)C3C4C=CC(O4)C3C(=O)O)cc2)cc1 (centres undefined) , what Activity is on record?
Marked response: 72.11

Exam item: For the compound O=C(O)C1CCCCC1C(=O)Nc1ccc([Se][Se]c2ccc(NC(=O)C3CCCCC3C(=O)O)cc2)cc1 (centres undefined) , what Activity is on record?
Marked response: 111.58

Exam item: For the compound N#C[Se]c1ccc(NC(=O)/C=C\C(=O)O)cc1 , what Activity is on record?
Marked response: 93.76
